EXPERIMENT_NOTES: yeast display, Sf9 membrane polyspecificity reagent, FACS + sequencing; frameworks hold sequencing errors

POLYMER_SEQUENCE	polyreactivity (PSR sort gate)
QVQLVESGGGLVQAGGSLRLSCAASGSIFVLYAMGWSRQAPGKERELVAAITTGGGTNYADSVKGRFTISRDNAKNTVYLQMNSLKPEDTAVYYCAAADSTWFDWGNYWYYYWGQGTQVTVSS	low polyreactivity
QVQLQECGGGLVQAGGSLRLTCAASGNIFHADIMGWYRQAPGKERELVARVTDGGSTNYADSVKGRLTISRDNAKNTVYLQMNSLKPEETAVYYCAAIVYPVILTYFDYDYDYFYWGQGTQVTVGS	low polyreactivity
QVQLVESGGGLVQAGGSLRLSCAASGRTFTWYAMGWYRQAPGKERELVAAISFSGGSTYYADSVKGRFTISRDNAKNTVYLQMNSLKPEDTAVYYCARPSGDAWEGPRMDYWGQGTQVTVSS	low polyreactivity
QVQLVESGGGLVQAGGSLRLSCAASGLTLSGNAMGWYRQAPGKERELVAAITGRGGSTTYADSVKGRFTISRDNAKNTVYLLMNSLKPEDTAVYYCAADGRWYWDYEYWGQGTQVTVSS	low polyreactivity
QVQLVESGGGLVQAGGSLRLSCAASGYTFDTKAMGWYRLAPGKERELVAAISRIGGRTYADSVKGRFTISRDNAKNTVYLQMNSLKPEDTAVYYGAADTTWYPYGYDSWGQGTPVTVSS	low polyreactivity
QVQLVESGGGLVQAGGSLRLSCAASGRIFRYYAMGWYRQATGKERELVAAISRSGGSTYYADSVKGRFTISRDNAKNTVYLQMNSLKPEDTAVYYCNAQWRSTDPYPPGYDYWGQGTQVTVSS	high polyreactivity
QVQLVESCGGLVQAGGSLRLSSAASGSIFEYNAMGWYRQEPGKERELVGAITSTDSTYADSVKGRFTISRDNAKNTVYLQMNSLKPEDTAVYYCAAEDVIYYLTGQWREYDYWGQGTQVTVSS	low polyreactivity
QVQLVESGGGLVQAGGSLRLSCAASGSILIYNAMGWYRQAPGKERELVAGISRRGASTYYADSVKGRFTISRDNAKNTVYLQMNSLKPEDTAVYYCAALGKYIVAWSGDYWGHGTQVTVSS	low polyreactivity
QVQLVESGGGLVQAGGSLRLSCASSGYIFRSYAMGWYRQAPGKERELVATISWIGGGTSYADSVKGRFTISRDNAKNTVYLQMNSLKPEDTAVYYCAAGPWAYGRRHAYYSRSFDYWGQGTQVTVSS	high polyreactivity
QVQLVESGGGLLQAGGSLRLSCAASGIIFFKYAMGWYRQAPGKERELVAAINRSGGSTYYADSVKGRFTISRDNAKNSVSLQMNSLKPEDTAVYYCNARLTLRSYDYWGQGTQVTVSS	low polyreactivity
QVQLVESGGGLVQAGGSLRLSCAASGSTFEYNAMGWYRQAPGKERELVASSTNYADSVKGRFTISRDNAKNTVYLQMNSLKPEDTAVYYFAREQGVNRNHDYWGQGTQVTVSS	low polyreactivity

----------
EXPERIMENT_NOTES: yeast display, Sf9 membrane polyspecificity reagent, FACS + sequencing; frameworks hold sequencing errors

POLYMER_SEQUENCE	polyreactivity (PSR sort gate)
QVQLVESGGGLVQAGGSLRLSCAASGSIFFGNAMGWYRQAPGKERELVAAISTTGGSTYYADSVKGRFTISRDNEKNTVYLQMNSLKPEDTAVYYCNADRATWWEQWWYDYWGHGTQVTVSS	low polyreactivity
QVQLVESGGGLVQAGGSLRLSCAASGFIFKRYAMGWYRQAPGKERELVAAITSSGGRTYYADSVKGRFTISRDNAKNTVYLQMISLKPEDTAVYYCAKGWSTYYTKMNYWGQGTQVTVSS	low polyreactivity
QVQLVESGGGLVQAGGSLRLSCAASGITFSRYAMGWYRQAPGKERELVAAITSSGGSTYYADSVKGRFTISRDNAKNTVYLQMNSLKPEDTAVYYCAATSYYTREQYYYWGQGTQVTVSS	high polyreactivity
QVQLVESGGGLVQAGGSLRLSCAASGSIFTNNAMGWYRQAPGKERELVAGISFRGSSTYADSVKGRFTISRDNAKNTVYLQMNSLKPEDTAVYYCAAEWFDLEDDYWGQGTQVTVSS	low polyreactivity
QVQLVESGGGLVQAGGSLRLSCAASGRTFRQYAMGWYRQAPGKERELVAAISSSGGRTYYADSVKGRFTISRDNAKNTVYLQMNSLKPEDTAVYYCNAARYSYCFDSWGQGTQVTVSS	high polyreactivity
QVQLQESVGGLVQAGGSLRLSCAASGSIFKVVDMGLYRQAPAKEREFVATIGEGGNTYYADSVKGRFTISRDNAKNTVYLQMNSLKPEDTAVYFYAVVLGTSYRYTYWGQGTLVTVSS	low polyreactivity
QVQLVESGGGRVQAGGSLRLSCAASGSIFFIYAMGWDRQAPSKEREFVAAISYGGGSTYYADSVKGRFTISRDNAKNTVYLQMNSLKPEDTAVYYCNADVPKSLLLYYPWGYGYWGQGTQVNVSS	low polyreactivity
QVQLVESGGGLLQAGGSLRLSCAASGRNFRYYAMGWYRQAPRKERELVAAITRGGRTNYADSVKGRFTISRDNAKNTVYLQMNSLKPEDSAVYYCAADYTKYYRRYYYWGQGTQVTVSS	high polyreactivity
QVQLVESGGGLVQAGGSLRLSCAASGRIFYGNAMGWYRQAPGKERELVAAITRSGSSTYYADSVKGRFTISRDNAKNTVYLQMNSLKPEVTAVYYCAVKYFDYVGQYAYYYWGQGTQVTVSS	high polyreactivity
QVQLVESGGVLVQAGGSLRLSCAASGSTFYPNAMGWYRQAPGQEREFVAAISDGGSTTYADSVKGRFTISRDNAKNTVYLQMNSLKPEDTAVYYCNARVGSYTPSWYYQEFDYWGQGTQVTVSS	low polyreactivity
QVQLVESCGGLVQAGGSLRLSCAASRSTFVKYTMGWYRQAPGKERELVATITWSGGSTYYADSVKGRFTISRDNAKNTVYLQLMSLKPEDTAVYYGAIDSGVYRTYQGRWYYYTDFYWGQGTQVTVSS	low polyreactivity

----------
EXPERIMENT_NOTES: yeast display, Sf9 membrane polyspecificity reagent, FACS + sequencing; frameworks hold sequencing errors
MEASUREMENT_KIND: polyreactivity (PSR sort gate)

POLYMER_SEQUENCE	TEST_RESULT
QVQLVESGGGLVQAGGSLRLSCAASGSTIGPYAMGWSRQAPGKERELVAAITISGDSTNYADSVKGRFTISRDNAKNTVYLQMLSLKPEDTAVYYCAAAYYWLQSWYDYWGQGTLVTVSS	low polyreactivity
QVQHVESGGGLVQAGCSLRLSCAASGSIFVIYAMGWYRQAPGKERELVAAIRSTGSSNYADSVKGRFTISRDNAKNTVYLQMNSLKPEDTAVYYCAAYRRRTYAVNIEGGYWGQGTQVTVSS	high polyreactivity
QVQLVDSGGGLVQAGCSLRISCAASGSIYTTYAMGWYRQAPGKERELVAALTRSGGRTYYADSVKGRFTISRDNAKYTVYLQMTSLKPEDTAVDDCNAYGYRTWWDDFKLDYWGQGTQVTVSS	high polyreactivity
QVQLVESGGGLVQAGGSLRLSCAASGFIIGDYAMGWYRQAPGKERELVAAITISGGGTYYADSVKGRFTISRDNAKNTVYLQMNSLKPEDTAVYYCAAGYYDLNLDTDFGFDYWGQGTQVTVSS	low polyreactivity
QVQLVESGGGLVQAGGSLRLSCAASGFIFYTKAMGWSRQAPGKERELVATITTSGGRTYYADSVKGRFTISRDNAKNYVYLQMYSMKPEDTAFYYSATRYVVIEYDYWGQGTQVTVSS	low polyreactivity

----------
EXPERIMENT_NOTES: yeast display, Sf9 membrane polyspecificity reagent, FACS + sequencing; frameworks hold sequencing errors
MEASUREMENT_KIND: polyreactivity (PSR sort gate)

POLYMER_SEQUENCE	MEASUREMENT_KIND	TEST_RESULT
QVQLVESGGGIVQAGCSLRIICAASGYTFGYYAMGSYRQAPGNERQFVAAITIDARTTYADSVKGRFTISRDKAKKTFYLQINSLKADDTAFYYCARGYFPYGYPWRWGYDRFDYWGQGTLVTVSS	polyreactivity (PSR sort gate)	low polyreactivity
QVQLVESGGGLVQAGGSLRLSCAASGSIIVRYAMGWDRQAPGKERELVAAISKSGGSTHYADSVKGRFTISRDNAKNTVYLQMNSLKPEDTAVYYCAAVYYYRFTTYYYWGQGTQVTVSS	polyreactivity (PSR sort gate)	high polyreactivity
QVQLVESGGGLVQAGGSLRLSCASSGSIFEGYVMGWYRQAPGKERELVAAITTGGGSTYYADSVKGRFTISRDNAKNTVYLQMTSLKPEDTAVYYCAKDYWFGYEYWGQGTQVTVSS	polyreactivity (PSR sort gate)	low polyreactivity
QVQLVESGRGLVQAGGSLRLSCAASGIIFYENTMGWYRLAPGKERELVASISWSGGRTYNADSVKGRFTISRDNAKNTVDLQMNSLKPEDTAVYYCAGRPYYLYIYNFWGQGTQVTVSS	polyreactivity (PSR sort gate)	high polyreactivity
QVQLVEAGGGLGQAGGSLRLSCAASGFTFYRYARGWYRQAPGKERELVAAISSSGGRTYYADSVKGRFTISRDTAKNTVYLQMNSLKPEDTAVYYCNVVRLQSYYGPFDYWGQGTQVTVSS	polyreactivity (PSR sort gate)	high polyreactivity
QVQLVESGGGLVHGGGSLRLSCAASGSILHYNTMGWYRQAPGKEREFVASISYSGGSTYYADSVKGRFTISRDNAKNTVYLQMNSLKPEDTAVYYCATEGMDFWFIYYYWGQGTQVTVSS	polyreactivity (PSR sort gate)	low polyreactivity
QDQIVDSGGGLVQAGVSLRLSCAASGFTFGINTLGWYRQAPGKERELVAGISRTSSTYADSVKGRFTISRDNAKNTVYLQMNSLNAEDTAVYYCAAEYFQTRFGSWRKRYVSWGQGTQVTVSS	polyreactivity (PSR sort gate)	high polyreactivity
QVQLVESGGGLVQAGGSLRLSCAASGRTFGWYAMGWYRQAPGKERELVAAISLSGGSTYYADSVKGRFTISRDNAKNTVYLQMNSLKPEDTAVYYCNALILPTKMGYWGQGTQVTVSS	polyreactivity (PSR sort gate)	low polyreactivity
QVQLVESGGGLVQAGGSLRLSCAASGRIYRENAMGWYRQAPGKEREFVAVISISDASTYYADSVKGRFTISRDNAKNTVYLQMNSLKPVDTAVYYCAADLTDFLYVSSDFWGQGTQVTVSS	polyreactivity (PSR sort gate)	low polyreactivity
QVQLVESGGGLVQAGRSLRLSCAASGTFIGYAMVWYRQAPGKERELVAAIDESGGSTYYADSVKGRFTISRDNAKNTVYLQMNSLKPEDTAVYYCAAYRYYSDYDYWGQGTQVTVSS	polyreactivity (PSR sort gate)	low polyreactivity
QVQLVESGGGLVQAGGSLRLSCAASGFILYDYAMGWYRQAPGKEREFVAAISWSGGRTYYADSVKGRFTISRDNAKNTVYLLLNSLNPEASAVYYCAVDAYRYWWTTYVSDFDYWGQGTQLTVSS	polyreactivity (PSR sort gate)	high polyreactivity

Data provenance is the nanobody polyreactivity screen of Harvey et al. (2022).
